This collection of values is drawn from patent US12441768B2.

# measurement notes: in vitro
# conditions used: % Viability non-Wnt responsive cells
Where a SMILES comes first, the peptide text is derived from it.

>  <molecule>
CC[C@H](C)[C@@H]1NC(=O)[C@H](Cc2c[nH]cn2)NC(=O)[C@H](CCC(=O)O)NC(=O)[C@H](Cc2ccccc2)NC(=O)[C@H](Cc2c[nH]c3ccccc23)NC(=O)[C@H](CO)NC(=O)[C@H]([C@@H](C)CC)NC(=O)[C@H](C)N(C)C(=O)[C@H](CC(C)C)NC(=O)[C@@H]2CCCN2C(=O)[C@H](CCSC)NC(=O)[C@@H](N)CCCCNC(=O)CNC1=O [compound 29] (HELM PEPTIDE1{K.M.P.L.[meA].I.S.W.F.E.H.I.G}$PEPTIDE1,PEPTIDE1,1:R3-13:R2$$$V2.0; bridges inferred)

>  <viability, %>
107

$$$$
>  <molecule>
CC[C@H](C)[C@H](NC(=O)[C@H](CO)NC(=O)[C@H](CCC(=O)O)NC(=O)[C@H](Cc1c[nH]c2ccccc12)NC(=O)[C@@H](N)CCSC)C(=O)N[C@@H](CC(C)C)C(=O)N[C@@H](CC(=O)O)C(=O)N[C@@H](CCC(=O)O)C(=O)N[C@@H](Cc1c[nH]cn1)C(=O)N[C@@H](CCSC)C(=O)N[C@@H](CCC(N)=O)C(=O)N[C@@H](CCCNC(=N)N)C(=O)N[C@H](C(=O)N[C@@H](Cc1c[nH]c2ccccc12)C(=O)N[C@@H](CCCNC(=N)N)C(=O)NCC(=O)O)C(C)C [compound 23] (H-MWESILDEHMQRVWRG-OH)

>  <viability, %>
98.9

$$$$

* * *

Each entry below lists one item and its recorded Kd value.
# assay system: β-catenin (Homo sapiens, UniProt P35222)
# Sequence (P35222 whole entry): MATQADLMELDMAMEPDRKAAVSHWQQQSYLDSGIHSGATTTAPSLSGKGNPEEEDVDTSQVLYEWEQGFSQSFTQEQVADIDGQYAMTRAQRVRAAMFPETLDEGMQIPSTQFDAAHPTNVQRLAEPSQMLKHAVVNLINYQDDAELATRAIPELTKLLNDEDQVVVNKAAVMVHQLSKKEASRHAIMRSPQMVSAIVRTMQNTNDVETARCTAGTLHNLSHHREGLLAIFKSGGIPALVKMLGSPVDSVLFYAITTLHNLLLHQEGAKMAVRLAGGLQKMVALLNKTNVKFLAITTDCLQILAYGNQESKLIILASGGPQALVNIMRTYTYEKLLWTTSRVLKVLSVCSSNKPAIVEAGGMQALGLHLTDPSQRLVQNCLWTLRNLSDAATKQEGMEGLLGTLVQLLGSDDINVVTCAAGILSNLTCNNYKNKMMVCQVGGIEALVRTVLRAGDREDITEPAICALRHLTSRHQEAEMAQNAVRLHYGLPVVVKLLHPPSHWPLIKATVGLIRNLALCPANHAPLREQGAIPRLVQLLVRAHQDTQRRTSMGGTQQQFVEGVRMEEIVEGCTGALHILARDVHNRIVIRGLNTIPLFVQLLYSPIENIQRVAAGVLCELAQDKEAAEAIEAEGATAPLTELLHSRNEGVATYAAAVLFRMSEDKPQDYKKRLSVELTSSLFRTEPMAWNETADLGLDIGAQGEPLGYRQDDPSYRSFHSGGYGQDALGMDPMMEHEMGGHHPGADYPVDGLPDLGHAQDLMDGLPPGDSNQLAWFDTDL
# measurement notes: KD50 measurement using competitive fluorescence polarization (FP) with labelled TCF4
# Assay type: binding
# conditions used: fluorescence polarization, β-catenin; read-out: β-Cat FP KD
# Protocol: Fluorescence polarization (FP) is another method used to analyze protein-ligand interactions. This methodology measures the change in fluorescence light emitted by a labelled compound free vs. conjugated to another compound in solution. Upon binding of the fluorescent molecule to a complex, polarization increases because of limited rotation of the fluorescent tracer. […] Data were analyzed and plotted in Microsoft Excel (Microsoft, Redmond, WA). […]
Where a SMILES comes first, the peptide text is derived from it.
metric name: Kd

>  <compound>
CC[C@H](C)[C@H](NC(=O)[C@H](CC(C)C)NC(=O)[C@H](Cc1ccccc1)NC(=O)[C@H](Cc1c[nH]c2ccccc12)NC(=O)[C@@H](N)CCSC)C(=O)N[C@@H](CO)C(=O)N[C@@H](Cc1ccccc1)C(=O)N[C@@H](C)C(=O)NCC(=O)O [compound 161] (H-MWFLISFAG-OH)

>  <test value>
> 30 µM

$$$$
>  <compound>
CC[C@H](C)[C@@H]1NC(=O)[C@H](CC(C)C)NC(=O)[C@H](C2CCCCC2)NC(=O)[C@H](Cc2c[nH]c3ccccc23)NC(=O)[C@@H](N)CCCCNC(=O)C[C@@H](C(=O)O)NC(=O)[C@H](Cc2c[nH]c3ccccc23)NC(=O)[C@H](C)NC(=O)[C@H](CO)NC1=O [compound 204] (HELM PEPTIDE1{K.W.[O=C([C@@H](N[*:1])C1CCCCC1)[*:2]].L.I.S.A.W.D}$PEPTIDE1,PEPTIDE1,1:R3-9:R3$$$V2.0)

>  <test value>
0.4 to 1 µM

$$$$
>  <compound>
CC[C@H](C)[C@H](NC(=O)[C@H](CC(C)C)NC(=O)[C@@H](NC(=O)[C@H](Cc1c[nH]c2ccccc12)NC(=O)[C@H](CCSC)NC(C)=O)[C@@H](C)CC)C(=O)N[C@@H](CO)C(=O)N[C@@H](Cc1ccccc1)C(=O)N[C@@H](Cc1c[nH]c2ccccc12)C(=O)NCC(=O)OC [compound 222] (HELM PEPTIDE1{[ac].M.W.I.L.I.S.F.W.G.[CO[*:1]]}$$$$V2.0)

>  <test value>
1 to 10 µM

$$$$
>  <compound>
CC[C@H](C)[C@@H]1NC(=O)[C@H](CC(C)C)NC(=O)[C@H](Cc2ccccc2)NC(=O)[C@H](Cc2c[nH]c3ccccc23)NC(=O)[C@H](CCSC)NC(=O)[C@@H](N)CC(=O)NCCCC[C@@H](C(=O)NCC(=O)O)NC(=O)[C@H](Cc2c[nH]c3ccccc23)NC(=O)[C@H](Cc2ccccc2)NC(=O)[C@H](CS)NC1=O [compound 177] (HELM PEPTIDE1{D.M.W.F.L.I.C.F.W.K.G}$PEPTIDE1,PEPTIDE1,1:R3-10:R3$$$V2.0)

>  <test value>
> 30 µM

$$$$
>  <compound>
CC[C@H](C)[C@H](NC(=O)[C@H](Cc1c[nH]c2ccccc12)NC(=O)[C@@H](N)CCSC)C(=O)N[C@@H](CC(C)C)C(=O)N[C@H](C(=O)N[C@H](C(=O)N[C@@H](Cc1ccccc1)C(=O)N[C@@H](Cc1c[nH]c2ccccc12)C(=O)NCC(=O)O)[C@@H](C)O)[C@@H](C)CC [compound 150] (H-MWILITFWG-OH)

>  <test value>
> 30 µM

$$$$
>  <compound>
CC[C@H](C)[C@H](NC(=O)[C@H](CC(C)C)NC(=O)[C@@H](NC(=O)[C@H](Cc1c[nH]c2ccccc12)NC(=O)[C@H](CCSC)NC(=O)[C@@H](N)CCCNC(=N)N)[C@@H](C)CC)C(=O)N[C@@H](CO)C(=O)N[C@@H](Cc1ccccc1)C(=O)N[C@@H](Cc1c[nH]c2ccccc12)C(=O)NCC(=O)O [compound 124] (H-RMWILISFWG-OH)

>  <test value>
> 30 µM

$$$$
